System: NCI-H226 complex tumor spheroids, viability
Experiment: Anticancer human tumor NCI-H226 cell line growth inhibition;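 further: spheroids exposed to compound for 7 days; 100% = DMSO vehicle control viability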
Conditions: second compound 3.16 µM; first compound 0.1 µM; active compounds read low
Quantity measured: viability, T/C (%)
Only the number, expressed in %, is required.

These recorded examples may help you get a feel for the data.
CC(C)n1c(=O)n(C)c2cnc3cc(F)c(-c4ccc(OCCCN5CCCCC5)nc4)cc3c21 + Cn1nnc2c(C(N)=O)ncn2c1=O    113
[2H]c1nc(C)nc([2H])c1-c1cc(NC[C@@H](C)c2cccc3c(C(=O)NC)ccnc23)ncn1 + Cn1nnc2c(C(N)=O)ncn2c1=O    114

Prompt: So what's the measured viability, T/C for this one? CC1COCCN1c1cc(-c2ccnn2C)c2ccnc(-c3ccn[nH]3)c2n1 (stereo unspecified) + Cn1nnc2c(C(N)=O)ncn2c1=O
Completion: 86.1

Prompt: Also COc1cc(C)[nH]c(=O)c1CN1CCc2c(Cl)cc(C(OC)C3COC3)c(Cl)c2C1=O (stereo unspecified) + Cn1nnc2c(C(N)=O)ncn2c1=O ?
Completion: 138

Prompt: What would you report for COc1ccc([C@@H](O)c2cc(-c3ncnc4cc(N5CCOCC5)ccc34)c(F)cc2Cl)nn1 + Cn1nnc2c(C(N)=O)ncn2c1=O ?
Completion: 101

Prompt: How about Cc1cc(C)c(CNC(=O)c2cc(-c3ccc(CN4CCOCC4)cc3)cc3c2cnn3C2CCCC2)c(=O)[nH]1 + Cn1nnc2c(C(N)=O)ncn2c1=O ?
Completion: 135

###

Test system: NCI-H226 complex tumor spheroids, viability
Experiment: Anticancer human tumor NCI-H226 cell line growth inhibition;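 further: spheroids exposed to compound for 7 days; 100% = DMSO vehicle control viability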
Details: second compound 31.6 µM; first compound 0.3 µM; active compounds read low
Procedure: Multicellular complex tumor spheroid response to DNA repair inhibitors in combination with DNA-damaging drugs This study explores the anticancer activities of DNA-damaging drugs and inhibitors of DNA damage repair, both as single agents and in combinations. […] Twenty-six patient-derived or established malignant cell lines were evaluated representing sarcoma, melanoma, small cell lung cancer (SCLC), non-small cell lung cancer (NSCLC), as well as bladder, ovarian and pancreatic cancers. […]
Quantity measured: viability, T/C (%)
Write down the numeric answer in % and omit the unit.

The examples below pair each entry with its known result.
O=C(c1cc(Cc2n[nH]c(=O)c3ccccc23)ccc1F)N1CCN(C(=O)C2CC2)CC1 + Cn1nnc2c(C(N)=O)ncn2c1=O    101
CNCc1ccc(-c2cc(-c3nc(-c4ccc(S(=O)(=O)C(C)C)cc4)cnc3N)on2)cc1 + Cn1nnc2c(C(N)=O)ncn2c1=O    123

Prompt: What does the record list as viability, T/C for Cc1sc2c(c1C)C(c1ccc(Cl)cc1)=NC(CC(=O)Nc1ccc(O)cc1)c1nnc(C)n1-2 (centres undefined) + Cn1nnc2c(C(N)=O)ncn2c1=O ?
Completion: 71

Prompt: Continue with Cn1ncnc1[C@H]1c2n[nH]c(=O)c3cc(F)cc(c23)N[C@@H]1c1ccc(F)cc1 + Cn1nnc2c(C(N)=O)ncn2c1=O
Completion: 91.8

###

System: NCI-H226 complex tumor spheroids, viability
Assay: Anticancer human tumor NCI-H226 cell line growth inhibition;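 further: spheroids exposed to compound for 7 days; 100% = DMSO vehicle control viability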
Conditions: second compound 100 µM; first compound 0.949 µM; active compounds read low
Quantity measured: viability, T/C

Consider the worked cases shown below.
Cc1sc2c(c1C)C(c1ccc(Cl)cc1)=NC(CC(=O)Nc1ccc(O)cc1)c1nnc(C)n1-2 (centres undefined) + Cn1nnc2c(C(N)=O)ncn2c1=O    55.4%
CNCc1ccc(-c2cc(-c3nc(-c4ccc(S(=O)(=O)C(C)C)cc4)cnc3N)on2)cc1 + Cn1nnc2c(C(N)=O)ncn2c1=O    73.3%
Cn1ncnc1[C@H]1c2n[nH]c(=O)c3cc(F)cc(c23)N[C@@H]1c1ccc(F)cc1 + Cn1nnc2c(C(N)=O)ncn2c1=O    100%

Prompt: // lookup viability, T/C | system=NCI-H226 complex tumor spheroids, viability | key= O=C(c1cc(Cc2n[nH]c(=O)c3ccccc23)ccc1F)N1CCN(C(=O)C2CC2)CC1 + Cn1nnc2c(C(N)=O)ncn2c1=O
Completion: 125%
